# reported IC50; entries follow
Tested on: SK-N-BE(2)C
Test: Cell viability (MTS) after 72 hours, SK-N-BE(2)c neuroblastoma cell line
Type: cell-based
Details: no unit in table, tested concentrations given in μM, read-out: IC50 (drug concentration causing the death of 50% of the cells with respect to the control)

[
  {
    "molecule_smiles": "COc1cccc([C@@H](C)NCCCc2ccccc2Cl)c1",
    "IC50 (µM)": 16.6
  },
  {
    "molecule_smiles": "C[C@@H](NCCCc1cccc(C(F)(F)F)c1)c1cccc2ccccc12",
    "IC50 (µM)": 10.7
  }
]

----------
Tested on: SK-N-AS
Test: Cell viability (MTS) after 72 hours, SK-N-AS neuroblastoma cell line
Assay type: cell-based
Details: Homo sapiens, no unit in table, tested concentrations given in μM, read-out: IC50 (drug concentration causing the death of 50% of the cells with respect to the control)

[
  {
    "molecule_smiles": "C[C@@H](NCCCc1cccc(C(F)(F)F)c1)c1cccc2ccccc12",
    "measurement_unit": "µM",
    "IC50": 10.3
  },
  {
    "molecule_smiles": "COc1cccc([C@@H](C)NCCCc2ccccc2Cl)c1",
    "measurement_unit": "µM",
    "IC50": 15.1
  }
]
